# protocol_description: compound effects on multiple myeloma cell viability – MM1S, calcein-AM fluorescence, 48 h, basal, profiling panel (AID 1165); also: test concentration not given here
# test_conditions: higher = more signal
observable: z-score
Answer as a number with no unit attached.

Below, each entry is followed by its recorded z-score result.
{"compound": "COc1ccc(CCNC(=O)[C@@H]2c3ccccc3C(=O)N(Cc3ccccc3OC)[C@H]2c2ccc(CO)cc2)cc1", "observable": "z-score", "result": -0.147}
{"compound": "CC(C)N1C(=O)C[C@@](C(=O)NCCN2CCOCC2)(c2ccc([N+](=O)[O-])cc2)[C@H]1c1ccc(CO)cc1", "observable": "z-score", "result": -0.617}
{"compound": "CC(C)=CCCC(C)=CC(O)C1C=CC2C(=O)NC(=O)C2N1Nc1ccccn1 (stereo not given)", "observable": "z-score", "result": 0.617}
{"compound": "Cc1ccc(S[C@]2(C(=O)NCC(F)(F)F)CC(=O)N(Cc3ccccc3C(F)(F)F)[C@@H]2c2ccc(CO)cc2)cc1", "observable": "z-score", "result": -1.04}
{"compound": "COC(=O)C1=CC(CCCO)=CC(c2cccs2)N(Cc2cc3c(cc2Br)OCO3)C=C1C(=O)OC (stereo not given)", "observable": "z-score", "result": -1.26}

Give the measured z-score of `COCCCNC(=O)[C@@]1(CCS(=O)(=O)c2ccccc2)COC(c2ccc(OCCCO)cc2)=N1` . -0.181

Give the measured z-score of `COC(=O)[C@H](Cc1ccccc1)N1CC2=CCCC=C[C@@H]2[C@H]1[C@H](O)Cc1ccccc1` . -3.12

Give the measured z-score of `COC(=O)[C@@]1(Cc2ccccc2)[C@H]2c3cc(C(=O)N(C)C)n(Cc4ccc(C(F)(F)F)nc4)c3C[C@H]2CN1C(=O)c1ccccc1` . -0.214

Give the measured z-score of O=C1C2C=CC(C(O)C3CCCCC3)N(n3cnnc3)C2C(=O)N1Cc1ccccc1 (stereo not given) . -0.453
